Source: paper PMC9656319

experiment-notes: Pharmacokinetic study in plasma after oral hexanic extract of Tagetes lucida, healthy and LPS-damaged mice
Assay type: in vivo, ICR mice
conditions-used: ICR, mouse, plasma, po, 10 mg/kg, LPS-damaged ICR mice, 10 mg/kg oral hexanic extract, mean ± SEM (n = 5)
// assign true (1) if AUC(0-inf) falls strictly below 3000 ng·h/mL, else false (0) (ties count as false (0))

Look over these answered cases.
[[record]]
structure_smiles = "COc1cc2ccc(=O)oc2cc1OC"
class_label = "true (1)"

[[record]]
structure_smiles = "COc1cc2ccc(=O)oc2c(OC)c1OC"
class_label = "false (0)"

[[record]]
structure_smiles = "COc1cc2ccc(=O)oc2cc1OCC=C(C)C"
class_label = "false (0)"

[[record]]
structure_smiles = "COc1ccc2ccc(=O)oc2c1"
class_label = "false (0)"


We now examine a further molecule.
## Task Item CC(C)=CCOc1ccc2ccc(=O)oc2c1 : AUC(0-inf) beneath 3000 ng·h/mL, strictly?
## Result true (1)

----------
experiment-notes: Stability of the analytes in spiked plasma, brain, kidney and spleen matrices (autosampler, long-term, freeze-thaw)
Format: physicochemical, mice
conditions-used: spleen, nominal 0.3 µg/mL, three cycles (−4 °C to 25 °C)
The entries below are paired with their reported Stability Freeze-Thaw RE (%).
Express your answer in %, writing the number without its unit.

Solved cases (4 shown):
[[record]]
compound = "COc1cc2ccc(=O)oc2c(OC)c1OC [DF, dimethylfraxetin]"
readout_kind = "Stability Freeze-Thaw RE (%)"
meas_value = -0.67

[[record]]
compound = "CC(C)=CCOc1ccc2ccc(=O)oc2c1 [PU, 7-O-prenylumbelliferone]"
readout_kind = "Stability Freeze-Thaw RE (%)"
meas_value = -8.53

[[record]]
compound = "COc1cc2ccc(=O)oc2cc1OC [SC, scoparone]"
readout_kind = "Stability Freeze-Thaw RE (%)"
meas_value = -9.57

[[record]]
compound = "COc1cc2ccc(=O)oc2cc1OCC=C(C)C [PE, 7-O-prenylscopoletin]"
readout_kind = "Stability Freeze-Thaw RE (%)"
meas_value = 2.50


Then this compound:
## Task Entry COc1ccc2ccc(=O)oc2c1 [HR, herniarin] : reported Stability Freeze-Thaw RE (%) = ?
## Result -0.63

----------
experiment-notes: Pharmacokinetic study in plasma after oral hexanic extract of Tagetes lucida, healthy and LPS-damaged mice
Format: in vivo, ICR mice
conditions-used: ICR, mouse, plasma, po, 10 mg/kg, healthy ICR mice, 10 mg/kg oral hexanic extract, mean ± SEM (n = 5)
# Lookup of reported Tmax keyed by entry
Field format: number, assumed h, no unit text.

Example results:
[[record]]
structure_smiles = "CC(C)=CCOc1ccc2ccc(=O)oc2c1"
meas_value = 1.55

[[record]]
structure_smiles = "COc1cc2ccc(=O)oc2c(OC)c1OC"
meas_value = 1.2

[[record]]
structure_smiles = "COc1ccc2ccc(=O)oc2c1"
meas_value = 0.95

[[record]]
structure_smiles = "COc1cc2ccc(=O)oc2cc1OC"
meas_value = 1.25


Next molecule, Tmax to be filled in.
## Task So what's the measured Tmax for this one? COc1cc2ccc(=O)oc2cc1OCC=C(C)C
## Result 1.55

----------
experiment-notes: Stability of the analytes in spiked plasma, brain, kidney and spleen matrices (autosampler, long-term, freeze-thaw)
Format: physicochemical, mice
conditions-used: kidney, nominal 3.0 µg/mL, three cycles (−4 °C to 25 °C)
readout-kind: Stability Freeze-Thaw RE (%)
// note: answer is a bare numeric in %

Reference set, count: 4
[[record]]
molecule = "COc1ccc2ccc(=O)oc2c1 [HR, herniarin]"
meas_value = -0.62

[[record]]
molecule = "COc1cc2ccc(=O)oc2c(OC)c1OC [DF, dimethylfraxetin]"
meas_value = 0.82

[[record]]
molecule = "COc1cc2ccc(=O)oc2cc1OC [SC, scoparone]"
meas_value = 1.51

[[record]]
molecule = "CC(C)=CCOc1ccc2ccc(=O)oc2c1 [PU, 7-O-prenylumbelliferone]"
meas_value = 2.01


Now take the following molecule into account.
## Task Value lookup for Stability Freeze-Thaw RE (%); key = COc1cc2ccc(=O)oc2cc1OCC=C(C)C [PE, 7-O-prenylscopoletin]
## Result 0.91
